assay-system: µOR (Homo sapiens, UniProt P35372)
Sequence (P35372 whole entry): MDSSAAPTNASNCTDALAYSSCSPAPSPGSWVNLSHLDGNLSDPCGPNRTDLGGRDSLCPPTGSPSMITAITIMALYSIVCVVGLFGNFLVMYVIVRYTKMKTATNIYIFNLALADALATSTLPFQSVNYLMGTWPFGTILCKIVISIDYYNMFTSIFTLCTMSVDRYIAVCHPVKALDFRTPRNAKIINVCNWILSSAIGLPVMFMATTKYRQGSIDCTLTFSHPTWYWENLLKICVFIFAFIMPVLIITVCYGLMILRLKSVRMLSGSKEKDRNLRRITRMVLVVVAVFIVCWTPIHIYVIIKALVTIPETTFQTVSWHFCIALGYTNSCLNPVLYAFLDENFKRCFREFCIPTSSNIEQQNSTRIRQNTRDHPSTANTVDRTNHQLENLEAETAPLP
measurement-notes: competitive radioligand binding with [3H]diprenorphine, membranes of transfected HEK 293T cells
Design: expressed in transfected cells; host or cells: HEK 293T cells, transient transfection, membrane preparation
stated-conditions: radioligand [3H]diprenorphine; number in brackets = number of experiments; read-out: mean Ki value µOR
measured-property: pKi
Bear in mind: pKi is minus log10 of a mol/L concentration; give just that figure.

Notebook: CN(C)[C@H](CNC(=O)/C=C/c1ccc(C(F)(F)F)cc1)Cc1ccc(O)cc1 [Example 9] , pKi read as 6.77

###

Examples of compounds with documented EC50 follow.
assay-system: µOR (Homo sapiens)
measurement-notes: G-protein mediated signaling, IP1 accumulation assay (HTRF) in HEK-293T cells with hybrid G-protein Gαqi
Assay type: cell-based
Set-up: expressed in transfected cells; host or cells: HEK-293T cells, transient transfection
Source text: Functionally selective drugs, which are biased towards Gi protein activation over β-arrestin signaling at the µOR are indicated to show an improved side effect profile. […] In the above table, the numbers indicate mean EC50 values in nM and Emax values relative to the full effect of reference agonist DAMGO [=100%], respectively and are derived from 3-9 individual experiments for G-protein signaling and 3-8 tests for arrestin recruitment. ND = not determined.
The reply should be a number in nM, with the unit left off.

Check out these entries, answers already filled in.
compound	EC50, nM
CN(C)[C@H](CNC(=O)/C=C/c1cccc2ccccc12)Cc1ccc(C(N)=O)cc1 [Example 18]	9.8
CN(C)[C@H](CNC(=O)/C=C/c1ccccc1C(F)(F)F)Cc1ccc(O)cc1 [Example 7]	13
CN(C)[C@H](CNC(=O)/C=C/c1ccc(C(F)(F)F)cc1)Cc1ccc(O)cc1 [Example 9]	67
CN(C)[C@H](CNC(=O)C=Cc1ccccc1)Cc1ccc(O)cc1 (stereo in doubt) [Example 1]	7
CN(C)[C@H](CNC(=O)/C=C/c1ccc(F)c(C(F)(F)F)c1)Cc1ccc(O)cc1 [Example 16]	40

Reading of EC50 for CN(C)[C@H](CNC(=O)/C=C/c1cccc2ccccc12)Cc1ccc(O)cc1 [Example 6] with µOR (Homo sapiens): 20

Reading of EC50 for C/C(=C\c1ccccc1)C(=O)NC[C@H](Cc1ccc(O)cc1)N(C)C [Example 4] with µOR (Homo sapiens): 17

Reading of EC50 for CN(C)[C@H](CNC(=O)C#Cc1ccccc1)Cc1ccc(O)cc1 [Example 2] with µOR (Homo sapiens): 22

Reading of EC50 for CN(C)[C@H](CNC(=O)/C=C/c1ccsc1)Cc1ccc(O)cc1 [Example 19] with µOR (Homo sapiens): 7.5

Reading of EC50 for CN(C)[C@H](CNC(=O)/C=C/c1cccc(C(F)(F)F)c1)Cc1ccc(C(N)=O)cc1 [Example 15] with µOR (Homo sapiens): 6.3
